These data points were gathered from patent US20230120736A1.

# Assay Summary: Conjugation of anti-CD98 mAbs with Bcl-xL inhibitor synthons (precipitation, DAR, recovery, aggregation)
# Condition Details: conjugation with synthon TX, Method E
Readout Kind: % Aggregates by SEC
Answer format: number, then unit.

Solved entries (count: 2):
1. huAb101: "heavy chain variable sequence of huAb101 is provided in SEQ ID NO: 106"; "light chain variable sequence ... in SEQ ID NO: 107" (antibody, V domains shown) VH: EVQLVESGGGLVKPGGSLRLSCATSGFTFIDYYMSWVRQAPGKGLEWLGFIRNKANRYTTEYSASVKGRFTISRDNSKSILYLQMNSLKTEDTAVYYCTRDRPAWFVYWGQGTLVTVSS VL: DIVMTQTPLSLPVTPGEPASISCKSSQSLLYSSNQKNYLAWYLQKPGQSPQLLIYWASTRESGVPDRFSGSGSGTDFTLKISRVEAEDVGVYYCQQYYSYPYTFGGGTKVEIK
0.3%
2. huAb107: "heavy chain variable sequence of huAb107 is provided in SEQ ID NO: 114"; "light chain variable sequence ... in SEQ ID NO: 112" (antibody, V domains shown) VH: EVQLVESGGGLVQPGGSLRLSCAASGFTFSDYTMAWVRQAPGKGLEWVATIIYSGRGTYYRDAVKGRFTISRDNAKNTLYLQMNSLRAEDTAVYYCARQSDDTYYYWGYFDYWGQGTMVTVSS VL: DIVMTQTPLSLPVTPGEPASINCKSSQSLLFSGNQKNYLAWYLQKPGQSPQLLIYWASTRQSGVPDRFSGSGSGTDFTLKISRVEAEDVGIYYCQQYYDVPYTFGQGTKLEIK
1.5%

# next molecule below
What value of measured % Aggregates by SEC is listed for huAb109: "heavy chain variable sequence of huAb109 is provided in SEQ ID NO: 116"; "light chain variable sequence ... in SEQ ID NO: 117" (antibody, V domains shown) VH: EVQLVESGGGLVQPGGSLRLSCAASGFTFSDYTMAWVRQAPGKGLEWVATIIYDARGTYYRDAVKGRFTISRDNAKNTLYLQMNSLRAEDTAVYYCARQSDDTYYYWGYFDYWGQGTMVTVSS VL: DIVMTQTPLSLPVTPGEPASINCKSSQSLLFSGNQKNYLAWYLQKPGQSPQLLIYWASTRQSGVPDRFSGSGSGTDFTLKISRVEAEDVGIYYCQQYYSSPYTFGQGTKLEIK ?
1.0%
